# Assay target: HLA-A*11:01
# Protocol details: IEDB peptide-MHC binding, purified MHC/direct/fluorescence; filed as Kd, often an IC50 or EC50 that approximates it; bounds were set here for any values at or beyond the usual limits of such assays
# Run conditions: source organism: Mycobacterium tuberculosis
Measure name: Kd

# return recorded Kd for entry RVEESRARL
≥ 20 µM

* * *

# Assay target: HLA-A*02:16
# Protocol details: IEDB peptide-MHC binding, purified MHC/competitive/fluorescence; filed as Kd, often an IC50 or EC50 that approximates it; bounds were set here for any values at or beyond the usual limits of such assays
# Run conditions: source organism: Human immunodeficiency virus 1
Measure name: pKd
Notebook: values listed as pKd are -log10 of the concentration (mol/L).

Entry GLGQYIYET needs its pKd filled in; supply it.
9.09

* * *

# Assay target: HLA-A*30:02
# Protocol details: IEDB peptide-MHC binding, purified MHC/competitive/radioactivity; filed as Kd, often an IC50 or EC50 that approximates it; bounds were set here for any values at or beyond the usual limits of such assays
# Run conditions: source organism: SARS coronavirus Tor2
Measure name: Kd

Provide only the value of recorded Kd for MWSFNPETNI
≥ 24.7 µM

Annotate the sequence MYASALVLL with its measured Kd.
≥ 33.5 µM

State its Kd for this sequence: HTSSMRGVY
0.000131 µM

* * *

# Assay target: HLA-A*68:23
# Protocol details: IEDB peptide-MHC binding, purified MHC/competitive/fluorescence; filed as Kd, often an IC50 or EC50 that approximates it; bounds were set here for any values at or beyond the usual limits of such assays
# Run conditions: source organism: Mycobacterium tuberculosis variant bovis BCG str. Pasteur 1173P2
Measure name: Kd (nM)
Reply numerically in nM, unit not repeated.

// output Kd; input TTFDLTLRR ; system HLA-A*68:23
12.1

* * *

# Assay target: HLA-A*26:01
# Protocol details: IEDB peptide-MHC binding, purified MHC/direct/fluorescence; filed as Kd, often an IC50 or EC50 that approximates it; bounds were set here for any values at or beyond the usual limits of such assays
# Run conditions: source organism: Rickettsia felis URRWXCal2
pKd: −log10 of the molar value.
Measure name: pKd

Tell me measured pKd for ATYGTAVNK please.
≤ 4.70

* * *

# Assay target: HLA-A*02:12
# Protocol details: IEDB peptide-MHC binding, purified MHC/competitive/fluorescence; filed as Kd, often an IC50 or EC50 that approximates it; bounds were set here for any values at or beyond the usual limits of such assays
# Run conditions: source organism: Burkholderia pseudomallei 91
pKd: −log10 of the molar value.
Measure name: pKd

Quick one: give measured pKd for RAYAAMHLW
≤ 4.70

* * *

# Assay target: HLA-A*29:02
# Protocol details: IEDB peptide-MHC binding, purified MHC/competitive/fluorescence; filed as Kd, often an IC50 or EC50 that approximates it; bounds were set here for any values at or beyond the usual limits of such assays
# Run conditions: source organism: Cryptosporidium parvum Iowa II
Measure name: Kd (nM)
Could you give me the number in nM? Just the number is fine.

Report Kd under test system HLA-A*29:02 for KLYLRPWWH .
683

* * *

# Assay target: HLA-A*31:01
# Protocol details: IEDB peptide-MHC binding, purified MHC/direct/fluorescence; filed as Kd, often an IC50 or EC50 that approximates it; bounds were set here for any values at or beyond the usual limits of such assays
# Run conditions: source organism: Mycobacterium tuberculosis
pKd: −log10 of the molar value.
Measure name: pKd

Entry QQDTNSAGL needs its pKd filled in; supply it.
≤ 4.70
